Origin of values: PubChem BioAssay AID256

System: CD2F1 mice, L1210 leukemia ip, survival T/C
assay.details: NCI In Vivo Anticancer Drug Screen. Data for tumor model L1210 Leukemia (intraperitoneal) in CD2F1 (CDF1) mice
recorded.conditions: endpoint: mean survival time; dose: 200.0 mg/kg/injection; schedule: Q04DX003 (ip); vehicle: saline sonified; higher = longer survival
Inconclusive results and toxic doses are left out.
Please provide measured T/C for the entries that follow.

Value lookup for T/C; key = `C(=Nc1ccccc1)c1ccccc1C=Nc1ccccc1`
100 % of control

May I ask what T/C has been recorded for CS(=O)(=O)OCC(O)C(O)COS(C)(=O)=O (centres undefined) ?
108 % of control

# get_value(readout='T/C', item= COC(=O)C1C=C2c3cccc4[nH]cc(c34)CC2N(C)C1 (centres undefined) )
97 % of control

Reported T/C, molecule O=C(O)CNC(=O)C(CN1CC(=O)OC1c1ccc([N+](=O)[O-])cc1)N1C(=O)c2ccccc2C1=O (centres undefined) : ____
88 % of control
